# Tested on: HB3
# METHOD DESCRIPTION: qHTS profiling for inhibitors of Plasmodium falciparum proliferation (AID 504749); note: nearly all actives have a fitted effect of over 60% in size
# RECORDED CONDITIONS: P. falciparum in erythrocytes, SYBR Green DNA, 72 h; series mostly up to 28.7 µM
Inconclusive results are not listed. The source made the active and inactive calls. Calls come from the whole dose curve; as a rule, active = well fitted inhibition curve with a large enough effect; inconclusive = small, poorly fitted or top-dose-only effect; inactive = flat fitted curve, though single readings scatter.
Classes used: active, inactive

[[record]]
compound = "COC(=O)C1=C(C#N)NC(C)=C(C(=O)OC(C)C)C1c1cccc([N+](=O)[O-])c1 (stereo not given)"
class_name = "active"

[[record]]
compound = "COC(F)(F)C(Cl)Cl"
class_name = "inactive"

[[record]]
compound = "O=C(O)CCC(=O)C(=O)O"
class_name = "inactive"

[[record]]
compound = "O=C(COc1ccc(Cl)cc1)OCCNC12CC3CC(CC(C3)C1)C2"
class_name = "inactive"

[[record]]
compound = "CC(C(=O)O)c1ccc(N2Cc3ccccc3C2=O)cc1 (stereo not given)"
class_name = "inactive"

[[record]]
compound = "CCOc1ccc2c(c1)C(C)=CC(C)(C)N2"
class_name = "inactive"

[[record]]
compound = "Nc1ncnc2c1ncn2[C@@H]1O[C@H](COP(=O)(O)OP(=O)(O)OP(=O)(O)O)[C@@H](O)[C@H]1O"
class_name = "inactive"

[[record]]
compound = "CO[C@H](C(=O)[C@@H](O)[C@@H](C)O)C1Cc2cc3cc(O[C@H]4C[C@@H](O[C@H]5C[C@@H](O)[C@H](O)[C@@H](C)O5)[C@@H](O)[C@@H](C)O4)c(C)c(O)c3c(O)c2C(=O)[C@H]1O[C@H]1C[C@@H](O[C@H]2C[C@@H](O[C@H]3C[C@](C)(O)[C@H](O)[C@@H](C)O3)[C@H](O)[C@@H](C)O2)[C@H](O)[C@@H](C)O1 (stereo not given in full)"
class_name = "active"

[[record]]
compound = "CC[N+](C)(C)Cc1ccccc1Br"
class_name = "inactive"

[[record]]
compound = "CCN(CC)CCOc1ccc(-c2nc3cc(Cl)ccc3s2)cc1"
class_name = "inactive"

[[record]]
compound = "CCCCC/C=C\\C/C=C\\CCCCCCCC(=O)O"
class_name = "inactive"

[[record]]
compound = "COCC(=O)Nc1cc(Sc2ccccc2)ccc1N=C(NC(=O)OC)NC(=O)OC"
class_name = "inactive"

[[record]]
compound = "CC(C)=O"
class_name = "inactive"

[[record]]
compound = "CCCCCC(CC)COC(=O)CC(C(=O)OCC(CC)CCCC)S(=O)(=O)O (stereo not given)"
class_name = "inactive"

[[record]]
compound = "Nc1c(N=Nc2ccc(-c3ccc(N=Nc4cc(S(=O)(=O)O)c5ccccc5c4N)cc3)cc2)cc(S(=O)(=O)O)c2ccccc12"
class_name = "inactive"

[[record]]
compound = "COc1ccc2c3c1O[C@H]1C[C@@H](O)C=C[C@@]31CCN(C)C2"
class_name = "inactive"

[[record]]
compound = "COC(=O)CCC(=O)CN"
class_name = "inactive"

[[record]]
compound = "CCCCC(=O)O[C@]1(C(=O)CO)[C@H](C)C[C@H]2[C@@H]3CCC4=CC(=O)C=C[C@]4(C)[C@@]3(F)[C@@H](O)C[C@@]21C"
class_name = "inactive"

[[record]]
compound = "O=C(O)CN(CCN(CC(=O)O)CC(=O)O)CC(=O)O"
class_name = "inactive"

[[record]]
compound = "C#CCOc1ccc2c(C)cc(=O)oc2c1"
class_name = "inactive"

